Assignment: determine reported IC50 (M); hIL36α; IL-8 production for the given binders.
- Target under test: T1, IL-36R naturally expressed on OVCAR8 cells and on normal human epidermal keratinocytes (NHK cells) (human, UniProt Q9HB29 20-575)
- T1 sequence (looked up): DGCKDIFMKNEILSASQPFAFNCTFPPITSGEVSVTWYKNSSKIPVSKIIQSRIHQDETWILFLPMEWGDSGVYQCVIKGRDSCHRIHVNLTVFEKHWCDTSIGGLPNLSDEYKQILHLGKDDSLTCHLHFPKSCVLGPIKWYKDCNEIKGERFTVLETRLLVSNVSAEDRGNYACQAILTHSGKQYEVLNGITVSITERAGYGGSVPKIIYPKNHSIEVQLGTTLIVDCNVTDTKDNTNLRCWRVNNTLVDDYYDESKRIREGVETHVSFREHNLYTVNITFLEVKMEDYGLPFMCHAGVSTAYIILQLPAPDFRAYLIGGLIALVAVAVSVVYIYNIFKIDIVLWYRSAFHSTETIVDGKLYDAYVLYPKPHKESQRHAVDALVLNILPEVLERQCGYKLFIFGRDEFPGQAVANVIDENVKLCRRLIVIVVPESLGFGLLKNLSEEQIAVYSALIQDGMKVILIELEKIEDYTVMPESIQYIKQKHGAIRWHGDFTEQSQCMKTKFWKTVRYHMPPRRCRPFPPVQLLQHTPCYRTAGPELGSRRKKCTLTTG
- Assay: cell-based or functional assay
One number for each entry, in M.

I need IC50 (M); hIL36α; IL-8 production for every entry listed below, if you could help.
1. hz84C4-1.5 (antibody, human IgG4 S228P, kappa, V domains shown, Humanized, human IgG4 / kappa) VH: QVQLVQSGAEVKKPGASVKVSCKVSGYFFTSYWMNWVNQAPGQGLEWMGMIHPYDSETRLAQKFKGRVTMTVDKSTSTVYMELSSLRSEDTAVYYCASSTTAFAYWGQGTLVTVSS VL: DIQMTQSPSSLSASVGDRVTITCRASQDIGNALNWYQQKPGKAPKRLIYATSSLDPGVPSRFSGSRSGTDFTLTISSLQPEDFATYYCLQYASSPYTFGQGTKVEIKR
2. hz84C4-1.2 (antibody, human IgG4 S228P, kappa, V domains shown, Humanized, human IgG4 / kappa) VH: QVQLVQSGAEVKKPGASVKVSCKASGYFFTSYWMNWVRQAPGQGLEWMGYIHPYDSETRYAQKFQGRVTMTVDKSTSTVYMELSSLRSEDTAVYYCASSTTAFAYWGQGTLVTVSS VL: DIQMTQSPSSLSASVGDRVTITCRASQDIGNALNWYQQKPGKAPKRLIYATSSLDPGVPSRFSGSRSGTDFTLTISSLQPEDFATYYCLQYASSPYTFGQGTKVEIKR

1. 8.48e-12
2. 8.5e-12
